# System under test: BCL-2 (binding to BAD peptide) (Homo sapiens, UniProt P10415)
# Sequence (P10415 whole entry): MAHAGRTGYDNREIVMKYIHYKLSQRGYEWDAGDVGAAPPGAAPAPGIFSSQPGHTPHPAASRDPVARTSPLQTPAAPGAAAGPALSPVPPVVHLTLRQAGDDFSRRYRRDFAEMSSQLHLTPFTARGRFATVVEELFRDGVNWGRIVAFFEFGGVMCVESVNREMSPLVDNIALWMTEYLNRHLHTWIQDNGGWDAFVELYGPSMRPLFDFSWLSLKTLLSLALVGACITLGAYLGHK
Metric: IC50

// worked examples, IC50 included
CCCCN(CCCC)C(=O)c1cc(C)n(-c2ccc(NC(=O)Cc3ccccc3Cl)cc2C(=O)N2Cc3ccccc3C[C@H]2CO)n1 [Example 139]; 0.276 to 0.287 µM
CCCCN(CCCC)C(=O)c1cc(C)n(-c2ccc(NC(=O)c3cc(-c4ccccc4)nn3-c3ccc(F)cc3)cc2C(=O)N2Cc3ccccc3C[C@H]2CO)n1 [Example 120]; 0.726 to 0.732 µM

Output IC50 of CCCCN(CCCC)C(=O)c1cc(C)n(-c2ccc(NC(=O)Cc3ccc(F)cc3Cl)cc2C(=O)N2Cc3ccccc3C[C@H]2CO)n1 [Example 158] 0.537 to 0.546 µM

Output IC50 of CCCCN(CCCC)C(=O)c1cc(C)n(-c2ccc(NC(=O)C3Oc4cc5ccccc5cc4O3)cc2C(=O)N2Cc3ccccc3C[C@H]2CO)n1 [Example 67] 0.0489 to 0.0527 µM

* * *

# System under test: BCL-2 (binding to BAK peptide) (Homo sapiens, UniProt P10415)
# Sequence (P10415 whole entry): as above
pIC50: −log10 of the molar value.
Reported pIC50 values are given for each entry in this list.

CCCCN(CCCC)C(=O)c1cc(C)n(-c2ccc(NC(=O)c3cc(-c4cccc(O)c4)[nH]n3)cc2C(=O)N2Cc3ccccc3C[C@H]2CO)n1; 6.06 to 6.13
CCCCN(CCCC)C(=O)c1cc(C)n(-c2ccc(NC(=O)Cc3cccc(C#N)c3)cc2C(=O)N2Cc3ccccc3C[C@H]2CO)n1; 6.71 to 6.74

Next item in the queue.
Identify measured pIC50 obtained with BCL-2 (binding to BAK peptide) (Homo sapiens, UniProt P10415) for CCCCN(CCCC)C(=O)c1cc(C)n(-c2ccc(NC(=O)COc3ccccc3Cl)cc2C(=O)N2Cc3ccccc3C[C@H]2CO)n1 . 5.38 to 5.41

* * *

# System under test: BCL-2 (binding to BAD peptide) (Homo sapiens)
pIC50: −log10 of the molar value.
Reported pIC50 values are given for each entry in this list.

// worked examples, pIC50 included
CCCCN(CCCC)C(=O)c1cc(C)n(-c2ccc(NC(=O)[C@@H]3COc4ccccc4O3)cc2C(=O)N2Cc3ccccc3C[C@H]2CO)n1; 6.76 to 6.77
CCCCN(CCCC)C(=O)c1cc(C)n(-c2ccc(NC(=O)Cc3ccc(Cl)cc3)cc2C(=O)N2Cc3ccccc3C[C@H]2CO)n1; 7.03 to 7.08

Identify measured pIC50 obtained with BCL-2 (binding to BAD peptide) (Homo sapiens) for CCCCN(CCCC)C(=O)c1cc(C)n(-c2ccc(NC(=O)C(C)CC(=O)O)cc2C(=O)N2Cc3ccccc3C[C@H]2CO)n1 (stereo partly shown) [Example 100] . 6.76 to 6.77

Identify measured pIC50 obtained with BCL-2 (binding to BAD peptide) (Homo sapiens) for CCCCN(CCCC)C(=O)c1cc(C)n(-c2ccc(NC(=O)c3cc4c(OC)c(OC)ccc4[nH]3)cc2C(=O)N2Cc3ccccc3C[C@H]2CO)n1 . 6.79 to 6.85
